TESTED TARGET: Cytochrome P450 2D6 (Homo sapiens)
Sequence (P10635 whole entry): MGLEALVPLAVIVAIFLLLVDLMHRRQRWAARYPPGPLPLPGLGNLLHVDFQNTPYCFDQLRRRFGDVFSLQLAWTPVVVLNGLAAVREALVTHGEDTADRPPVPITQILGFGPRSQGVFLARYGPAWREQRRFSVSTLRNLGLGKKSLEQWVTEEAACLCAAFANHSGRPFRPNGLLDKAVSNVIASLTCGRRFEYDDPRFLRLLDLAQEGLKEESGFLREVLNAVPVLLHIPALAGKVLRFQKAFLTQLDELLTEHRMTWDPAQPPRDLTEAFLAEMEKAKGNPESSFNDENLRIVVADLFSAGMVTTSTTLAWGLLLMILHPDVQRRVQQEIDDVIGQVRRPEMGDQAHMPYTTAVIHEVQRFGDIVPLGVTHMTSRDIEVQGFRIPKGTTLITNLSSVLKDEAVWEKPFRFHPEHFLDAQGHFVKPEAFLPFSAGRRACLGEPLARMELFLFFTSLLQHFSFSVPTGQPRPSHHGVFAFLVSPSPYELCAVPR
PROCEDURE DETAILS: Inhibition of CYP2D6
Format: ADME
pIC50: −log10 of the molar value.
ATTRIBUTE MEASURED: pIC50

pIC50 recorded for this compound, Cc1c(-c2cn(C(C)C)cn2)nn(-c2ccccc2Cl)c1-c1ccc(Cl)cc1 , is < 5.00

---

TESTED TARGET: Cytochrome P450 2C19 (Homo sapiens)
Sequence (P33261 whole entry): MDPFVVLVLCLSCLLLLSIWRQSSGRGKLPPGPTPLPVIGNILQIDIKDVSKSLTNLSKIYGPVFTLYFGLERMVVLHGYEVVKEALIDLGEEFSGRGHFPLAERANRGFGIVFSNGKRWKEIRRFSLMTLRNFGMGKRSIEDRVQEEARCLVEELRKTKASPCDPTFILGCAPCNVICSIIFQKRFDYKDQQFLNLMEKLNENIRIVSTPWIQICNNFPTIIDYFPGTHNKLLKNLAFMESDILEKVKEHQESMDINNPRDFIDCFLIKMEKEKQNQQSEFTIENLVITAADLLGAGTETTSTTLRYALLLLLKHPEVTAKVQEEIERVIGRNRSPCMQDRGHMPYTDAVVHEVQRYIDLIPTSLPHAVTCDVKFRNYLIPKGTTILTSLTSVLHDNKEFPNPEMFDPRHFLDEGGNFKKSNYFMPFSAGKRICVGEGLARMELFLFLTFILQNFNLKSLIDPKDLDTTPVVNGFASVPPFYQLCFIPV
PROCEDURE DETAILS: Inhibition of CYP2C19
Type: ADME
ATTRIBUTE MEASURED: IC50

Entry Cc1c(-c2cn(C(C)C)cn2)nn(-c2ccccc2Cl)c1-c1ccc(Cl)cc1 — recorded IC50 = > 10 µM

---

PROCEDURE DETAILS: Volume of distribution in rat at 2 mg/kg, iv
Type: ADME, organism-based
Set-up: dose 2 mg/kg, route intravenous
TEST SETTINGS: in vivo
ATTRIBUTE MEASURED: Vd (L/kg)
Give bare numbers, in L/kg.

Entry Cc1c(-c2cn(C(C)C)cn2)nn(-c2ccccc2Cl)c1-c1ccc(Cl)cc1 ; Vd = 2.5

---

PROCEDURE DETAILS: Intrinsic clearance in human liver microsomes
Assay type: ADME, Microsome
ATTRIBUTE MEASURED: CLint scaled (L/h/kg)
Numbers only, in L/h/kg.

STRUCTURE	VALUE UNIT	CLint scaled
Cc1c(-c2cn(C(C)C)cn2)nn(-c2ccc(Cl)cc2Cl)c1-c1ccc(Cl)cc1	L/h/kg	0.84
Cc1c(-c2ncc(C(C)C)[nH]2)nn(-c2ccc(Cl)cc2Cl)c1-c1ccc(Cl)cc1	L/h/kg	2.55

Now for another entry.
So, Cc1c(-c2cnc(C(C)C)[nH]2)nn(-c2ccc(Cl)cc2Cl)c1-c1ccc(Cl)cc1 ? Its CLint scaled was 2.55

---

TESTED TARGET: Cytochrome P450 3A4 (Homo sapiens, UniProt P08684)
Sequence (P08684 whole entry): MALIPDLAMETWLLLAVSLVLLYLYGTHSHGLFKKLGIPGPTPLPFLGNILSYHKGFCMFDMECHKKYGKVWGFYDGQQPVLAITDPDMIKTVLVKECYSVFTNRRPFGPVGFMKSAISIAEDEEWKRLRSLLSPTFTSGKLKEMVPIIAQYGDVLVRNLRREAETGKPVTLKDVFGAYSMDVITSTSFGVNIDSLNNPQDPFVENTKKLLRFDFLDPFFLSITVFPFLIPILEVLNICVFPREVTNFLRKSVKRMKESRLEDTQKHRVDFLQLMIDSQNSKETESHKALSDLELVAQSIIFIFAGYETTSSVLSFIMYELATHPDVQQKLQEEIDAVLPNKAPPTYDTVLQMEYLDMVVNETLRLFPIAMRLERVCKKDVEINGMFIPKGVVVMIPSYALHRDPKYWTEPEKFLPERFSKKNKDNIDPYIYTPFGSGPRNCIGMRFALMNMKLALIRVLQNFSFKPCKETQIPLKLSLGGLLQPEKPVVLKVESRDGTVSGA
ATTRIBUTE MEASURED: IC50

The measured IC50 associated with Cc1c(-c2cn(C(C)C)cn2)nn(-c2ccccc2Cl)c1-c1ccc(Cl)cc1 reads > 10 µM

---

TESTED TARGET: UniProt P11712
Sequence (P11712 whole entry): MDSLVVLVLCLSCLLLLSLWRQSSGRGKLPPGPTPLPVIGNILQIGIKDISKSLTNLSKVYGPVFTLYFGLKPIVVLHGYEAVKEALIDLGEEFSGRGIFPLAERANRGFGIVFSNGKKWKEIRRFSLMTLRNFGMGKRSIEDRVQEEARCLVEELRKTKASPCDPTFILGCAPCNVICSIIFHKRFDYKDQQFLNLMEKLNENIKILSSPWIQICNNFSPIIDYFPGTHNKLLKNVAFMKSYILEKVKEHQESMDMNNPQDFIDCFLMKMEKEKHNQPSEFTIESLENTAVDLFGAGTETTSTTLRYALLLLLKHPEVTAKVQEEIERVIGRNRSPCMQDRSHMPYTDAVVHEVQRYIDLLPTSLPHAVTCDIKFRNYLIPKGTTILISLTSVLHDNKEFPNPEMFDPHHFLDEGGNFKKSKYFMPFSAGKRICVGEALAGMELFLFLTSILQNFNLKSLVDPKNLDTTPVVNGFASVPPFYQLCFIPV
pIC50: −log10 of the molar value.
ATTRIBUTE MEASURED: pIC50

For Cc1c(-c2cn(C(C)C)cn2)nn(-c2ccccc2Cl)c1-c1ccc(Cl)cc1 the molecule record lists pIC50 as < 5.00

---

TESTED TARGET: UniProt P21554
Sequence (P21554 whole entry): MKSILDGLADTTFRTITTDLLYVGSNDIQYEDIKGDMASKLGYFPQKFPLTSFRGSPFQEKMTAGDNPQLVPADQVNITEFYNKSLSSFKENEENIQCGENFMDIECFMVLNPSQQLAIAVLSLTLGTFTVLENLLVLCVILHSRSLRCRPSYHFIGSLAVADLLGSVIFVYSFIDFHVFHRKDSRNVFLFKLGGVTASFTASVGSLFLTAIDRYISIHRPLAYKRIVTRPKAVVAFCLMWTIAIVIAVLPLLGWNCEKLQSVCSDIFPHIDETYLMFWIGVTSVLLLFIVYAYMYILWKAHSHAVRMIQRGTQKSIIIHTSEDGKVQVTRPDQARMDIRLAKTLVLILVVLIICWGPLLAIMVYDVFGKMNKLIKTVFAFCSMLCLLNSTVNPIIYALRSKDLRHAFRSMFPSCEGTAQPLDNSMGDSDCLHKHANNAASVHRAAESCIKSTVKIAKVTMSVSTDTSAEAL
PROCEDURE DETAILS: Antagonist activity at human CB1 receptor transfected in CHO-K1cells by GTPgamma[35S] binding assay
ATTRIBUTE MEASURED: pKi
Answers are plain numbers, as −log10 of the molar value.

STRUCTURE	RESULT
Cc1c(-c2cn(C(C)C)cn2)nn(-c2ccc(Cl)cc2Cl)c1-c1ccc(Cl)cc1	8.05
Cc1c(-c2cn(C3CCCCC3)cn2)nn(-c2ccc(Cl)cc2Cl)c1-c1ccc(Cl)cc1	8.33
Cc1c(-c2cn(C(C)(C)c3ccccc3)cn2)nn(-c2ccc(Cl)cc2Cl)c1-c1ccc(Cl)cc1	10.00
Cc1c(-c2ncn(C(C)C)c2C)nn(-c2ccc(Cl)cc2Cl)c1-c1ccc(Cl)cc1	8.05
Cc1c(-c2cn(C3CCC3)cn2)nn(-c2ccc(Cl)cc2Cl)c1-c1ccc(Cl)cc1	8.30

Report pKi for each item below.
1. Cc1c(-c2cnc(C(C)C)[nH]2)nn(-c2ccc(Cl)cc2Cl)c1-c1ccc(Cl)cc1
2. Cc1c(-c2cn(C3CC3)cn2)nn(-c2ccccc2Cl)c1-c1ccc(Cl)cc1
3. Cc1c(-c2cn(C(C)C)cn2)nn(-c2ccccc2Cl)c1-c1ccc(Cl)cc1
4. Cc1c(-c2ncc(C(C)C)[nH]2)nn(-c2ccc(Cl)cc2Cl)c1-c1ccc(Cl)cc1
5. Cc1c(-c2cn(-c3ccccc3)cn2)nn(-c2ccccc2Cl)c1-c1ccc(Cl)cc1

[8.02, 8.10, 8.12, 8.28, 8.42]

For this compound ( Cc1c(-c2cn(C(C)(C)c3ccccc3)cn2)nn(-c2ccccc2Cl)c1-c1ccc(Cl)cc1 ), measured pKi is 10.00

---

Kindly supply the reported Ki values for the records listed here.
TESTED TARGET: Cannabinoid receptor 1 (Rattus norvegicus, UniProt P20272)
Sequence (P20272 whole entry): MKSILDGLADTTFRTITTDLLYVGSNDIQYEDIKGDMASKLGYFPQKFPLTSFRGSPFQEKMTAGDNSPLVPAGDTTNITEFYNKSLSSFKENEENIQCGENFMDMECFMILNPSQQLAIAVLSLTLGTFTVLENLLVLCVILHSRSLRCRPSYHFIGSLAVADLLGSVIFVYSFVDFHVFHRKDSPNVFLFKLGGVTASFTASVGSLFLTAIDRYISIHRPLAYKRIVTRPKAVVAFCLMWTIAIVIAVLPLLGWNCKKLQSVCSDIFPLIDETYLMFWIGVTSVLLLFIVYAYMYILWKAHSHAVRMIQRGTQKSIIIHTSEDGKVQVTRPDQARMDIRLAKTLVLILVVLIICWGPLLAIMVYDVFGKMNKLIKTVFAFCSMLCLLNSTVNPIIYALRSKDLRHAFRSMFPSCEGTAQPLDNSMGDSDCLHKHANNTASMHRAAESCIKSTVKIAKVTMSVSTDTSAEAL
Give bare numbers, in nM.

The cases that follow already have their Ki on record.
STRUCTURE	RESULT
CCn1cnc(-c2nn(-c3ccc(Cl)cc3Cl)c(-c3ccc(Cl)cc3)c2C)c1	20
Cc1c(-c2cn(C(C)C)cn2)nn(-c2ccccc2Cl)c1-c1ccc(Cl)cc1	5.3
Cc1c(-c2cn(C(C)C)cn2)nn(-c2ccc(Cl)cc2Cl)c1-c1ccc(Cl)cc1	4.9
CCc1c(-c2nn(-c3ccc(Cl)cc3Cl)c(-c3ccc(Cl)cc3)c2C)ncn1C(C)C	38
Cc1c(-c2nc[nH]c2C(C)C)nn(-c2ccccc2Cl)c1-c1ccc(Cl)cc1	31

Please go through the list and note Ki for each compound.
1. Cc1c(-c2cn(C(C)(C)C)cn2)nn(-c2ccc(Cl)cc2Cl)c1-c1ccc(Cl)cc1
2. Cc1c(-c2ncn(C(C)C)c2C)nn(-c2ccc(Cl)cc2Cl)c1-c1ccc(Cl)cc1
3. Cc1c(-c2cn(C3CC3)cn2)nn(-c2ccccc2Cl)c1-c1ccc(Cl)cc1
4. Cc1c(-c2cn(C(C)(C)c3ccccc3)cn2)nn(-c2ccccc2Cl)c1-c1ccc(Cl)cc1

14
5.7
7.4
1.1

Each recorded value in this set is attributed to ChEMBL document CHEMBL1155992.
